# System: HAP1 MTAP-deleted cell line
# ASSAY NOTES: Viability assay, MTAP-deleted cell line
# Format: cell-based
# SETUP CONDITIONS: Homo sapiens, HAP1, viability assay, MTAP-deleted cell line; read-out: HAP1 MTAP deleted viability
TEST READOUT: IC50

Consider the reported IC50 for these molecules:
1. NC(=O)c1cncc(NC(=O)C(=O)N2CC[C@H]3C[C@@H](O)CC[C@@H]3C2)c1 (racemic) [Compound 418] : > 10 µM
2. C[C@@H]1CC[C@@H]2CCCC[C@@H]2N1C(=O)C(=O)Nc1cncc(C(N)=O)c1 (single isomer, unassigned) [Compound 236] : > 10 µM
3. Cc1cc(NC(=O)C(=O)N2C[C@H](C)CC[C@H]2c2ccc3sc(C(F)(F)F)nc3c2)cnc1N (single isomer, unassigned) [Compound 959] : > 10 µM

Inquiry: Request - read-out IC50 | tested on HAP1 MTAP-deleted cell line | molecule COc1cc([C@@H]2CC[C@@H](C)CN2C(=O)C(=O)Nc2cncc(C(N)=O)c2)ccc1Cl (racemic) [Compound 114]
Reply text: > 10 µM

Inquiry: API: value(readout=IC50, system=HAP1 MTAP-deleted cell line) for record CCc1cc(NC(=O)C(=O)N2C[C@@H](C)CC[C@@H]2c2ccc3sc(NC)nc3c2)cnc1N (single isomer, unassigned) [Compound 884]
Reply text: < 1 µM

Inquiry: Kindly state the measured IC50 obtained for CO[C@@H]1C[C@@H](c2ccc3scnc3c2)N(C(=O)C(=O)Nc2cnc(N)c(C)c2)C[C@@H]1C (single isomer, unassigned) [Compound 1130] with HAP1 MTAP-deleted cell line.
Reply text: > 10 µM

Inquiry: Notebook entry, HAP1 MTAP-deleted cell line assay: IC50 of Cc1cc(NC(=O)C(=O)N2C[C@H](C)CC[C@H]2c2cccc(N(C)C)c2)cnc1N (single isomer, unassigned) [Compound 386] = ?
Reply text: < 1 µM

Inquiry: So what IC50 did CCc1cc(NC(=O)C(=O)N2C[C@@H](C)CC[C@@H]2c2ccc3sc([C@H]4C[C@H](N(C)C)C4)nc3c2)cnc1N [Compound 1101] get with HAP1 MTAP-deleted cell line?
Reply text: < 1 µM

Inquiry: Give IC50 (HAP1 MTAP-deleted cell line) of the following molecule: C[C@@H]1CC[C@@H](c2cccs2)N(C(=O)C(=O)Nc2cncc(C(N)=O)c2)C1 (racemic) [Compound 99]
Reply text: 1 to 10 µM

Inquiry: Given the entry C[C@@H]1CC[C@@H](c2ccc(CN3CCOCC3)cc2)N(C(=O)C(=O)Nc2cncc(C(N)=O)c2)C1 (racemic) [Compound 213] , what IC50 was observed with HAP1 MTAP-deleted cell line?
Reply text: > 10 µM

Inquiry: Missing value: IC50, HAP1 MTAP-deleted cell line, entry COc1ncc(NC(=O)C(=O)N2C[C@@H](C)CC[C@@H]2c2ccc3sc(N)nc3c2)cc1C(N)=O (racemic) [Compound 954] . Fill in?
Reply text: < 1 µM

Inquiry: # returns recorded IC50 (system: HAP1 MTAP-deleted cell line) for Cc1cc(NC(=O)C(=O)N2C[C@@H]3CC[C@@H](C3)[C@@H]2c2ccccc2)cnc1N (single isomer, unassigned) [Compound 62]
Reply text: > 10 µM

Inquiry: For the record Cc1cc(NC(=O)C(=O)N2C[C@H](C)CC[C@H]2c2ccc3c(cnn3CCN(C)C)c2)cnc1N (single isomer, unassigned) [Compound 1182] , what value of IC50 is listed for HAP1 MTAP-deleted cell line?
Reply text: < 1 µM

Inquiry: Request - read-out IC50 | tested on HAP1 MTAP-deleted cell line | molecule COc1ncc(NC(=O)C(=O)N2C[C@@H](C)CC[C@@H]2c2ccc3sc(C4(CN(C)C)CC4)nc3c2)cc1C(N)=O (single isomer, unassigned) [Compound 1109]
Reply text: < 1 µM

Inquiry: # get_value(readout= IC50, system= HAP1 MTAP-deleted cell line) for CNc1ccc([C@@H]2CC[C@@H](C)CN2C(=O)C(=O)Nc2cncc(C(N)=O)c2)cn1 (racemic) [Compound 209]
Reply text: 1 to 10 µM

Inquiry: Requested read-out IC50, target or system HAP1 MTAP-deleted cell line, entry CCc1cc(NC(=O)C(=O)N2C[C@H](C)CC[C@H]2c2ccc3sc(CCN(C)C)nc3c2)cnc1N (single isomer, unassigned) [Compound 1133]
Reply text: 1 to 10 µM

Inquiry: Given the entry Cc1cc(NC(=O)C(=O)N2C[C@H](C)CC[C@H]2c2cn[nH]c2)cnc1N (single isomer, unassigned) [Compound 969] , what IC50 was observed with HAP1 MTAP-deleted cell line?
Reply text: > 10 µM

Inquiry: Request body: readout IC50, system HAP1 MTAP-deleted cell line, query CNc1cccc([C@H]2CCCCN2C(=O)C(=O)Nc2cnc(N)c(C)c2)c1 (single isomer, unassigned) [Compound 356] . Return the value.
Reply text: 1 to 10 µM

Inquiry: Form: Entry = NC(=O)c1cncc(NC(=O)C(=O)N2C[C@@H]3CC[C@@H](C3)[C@@H]2c2cccs2)c1 (racemic) [Compound 79] | System = HAP1 MTAP-deleted cell line | IC50 = ____
Reply text: > 10 µM

Inquiry: Checklist item: IC50 tested on HAP1 MTAP-deleted cell line, entry NC(=O)c1cncc(NC(=O)C(=O)N2C[C@@H](CO)CC[C@@H]2c2ccccc2)c1 (racemic) [Compound 266] , value?
Reply text: > 10 µM

Inquiry: Find the measured IC50: item Cc1cc(NC(=O)C(=O)N2C[C@@H](C)CC[C@@H]2c2ccccc2)cnc1C (single isomer, unassigned) [Compound 258] , target or system HAP1 MTAP-deleted cell line.
Reply text: > 10 µM

Inquiry: Identify the measured IC50 of COc1ncc(NC(=O)C(=O)N2C[C@@H](C)CC[C@@H]2c2cncs2)cc1C(N)=O (single isomer, unassigned) [Compound 516] for HAP1 MTAP-deleted cell line.
Reply text: < 1 µM

Inquiry: Query for HAP1 MTAP-deleted cell line: what IC50 does the record show for Cc1cncc(NC(=O)C(=O)N2C[C@H](C)CC[C@H]2c2ccc3c(c2)CCCC3)c1 (racemic) [Compound 80] ?
Reply text: > 10 µM

Inquiry: Query IC50 on HAP1 MTAP-deleted cell line for COc1ncc(NC(=O)C(=O)N2C[C@@H](C)CC[C@@H]2c2cccs2)cc1C(N)=O (single isomer, unassigned) [Compound 303]
Reply text: < 1 µM

Inquiry: Any idea what IC50 came out for CCc1cc(NC(=O)C(=O)N2CC(C)CCC2c2ccc3sc(C4CCN(C)CC4C)nc3c2)cnc1N (racemic) [Compound 1131] on HAP1 MTAP-deleted cell line?
Reply text: < 1 µM
